assay: in vitro; details: human, liver microsomes
EXPERIMENTAL ENDPOINT: remaining at 0.5 h, 2 µM (%)
# unit: % | format: bare number

# MOLECULE, remaining at 0.5 h, 2 µM (%)
rows = [
    ("Cc1nc2n(c(=O)c1CCN1CCC(c3noc4cc(F)ccc34)CC1)CCCC2 [RISPERIDONE]", 100),
]

Consider the additional molecule presented here.
Value of measured remaining at 0.5 h, 2 µM for the entry Cc1nc2n(c(=O)c1CCN1CCC(c3noc4cc(F)ccc34)CC1)CCCC2O (configuration not stated) [PALIPERIDONE] : 100

###

test: in vitro; settings: human, liver microsomes
Listing of entries alongside the reported remaining at 1 h, 2 µM.
Number only, in %; omit the unit.

# COMPOUND, remaining at 1 h, 2 µM, %
rows = [
    ("Cc1nc2n(c(=O)c1CCN1CCC(c3noc4cc(F)ccc34)CC1)CCCC2O (configuration not stated) [PALIPERIDONE]", 100),
]

Shifting focus to the compound that follows.
For Cc1nc2n(c(=O)c1CCN1CCC(c3noc4cc(F)ccc34)CC1)CCCC2 [RISPERIDONE] the compound record lists remaining at 1 h, 2 µM as 75
